Exercise: for every item that follows, state its recorded IC50.
# Assayed target: human Nav1.7 (Homo sapiens, UniProt Q15858, W1161R)
# Type: cell-based
# Measurement conditions: read-out: Nav1.7 IC50
One number for each entry, in nM.

> print(dat)
                                  substance  scale.unit  observed.value
1  GPGWCGDPGATCGKLRLYCCSGFCDSYTKTCKDKSSAGGGGSAPAPAPAPAPAPAPAPAPAPAPAPAPAPAPGGGGSQCQKWMQTCDRERKCCEGFVCTLWCRKKLW [NV1D3822]          nM            74.2

For each entry beneath this line, provide reported IC50.
1. GPGWCGDPGATCGKLRLYCCSGFCDAYTKTCKDKSSAGGGGSAPAPAPAPAPAPAPAPAPAPAPAPAPAPAPGGGGSQCQKWMQTCDRERKCCEGFVCTLWCRKKLW [NV1D3824]
2. GPCCNCSSKWCRDHSRCCGRGSAPAPAPAPAPAPAPAPAPAPGSQCQKWMQTCDRERKCCEGFVCTLWCRKKLW [NV1D3793]
3. GPQCQKWMQTCDRERKCCEGFVCTLWCRKKLWGGGGSAPAPAPAPAPAPAPAPAPAPAPAPAPAPAPGGGGSGWCGDPGATCGKLRLYCCSGFCDAYTKTCKDKSSA [NV1D3825]
4. GPQCQKWMQTCDRERKCCEGFVCTLWCRKKLWGSGGGGSAPAPAPAPAPAPAPAPAPAPGGGGSGSCCNCSSKWCRDHSRCC [NV1D3829]

1: 110; 2: 64.6; 3: 194; 4: 122

The reported numbers originate from patent US20170334959A1.
